In this section we review reported protein stability index values for a set of variants.
B1: EHMT1 (parent)
chain: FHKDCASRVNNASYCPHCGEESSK

# Variants of: B1
# Test Details: protein stability index of a GFP-peptide fusion (GPS, HEK-293T) (PSI 1-6); higher = more stable;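 further: lentivirally expressed fusions sorted by FACS into six bins by GFP to DsRed ratio, PSI derived from sequencing read proportions per bin multiplied by bin number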
# Test Settings: c terminus: a fixed tail appended
Respond using a number only.

Lookup result for R8Y ; measured protein stability index: 2.63

The variant identified as S13G registered its protein stability index at 3.97

Sure, the documented protein stability index for N11H is 3.82

Recorded result, D4I , protein stability index: 2.56

For record K3S the listed protein stability index is 2.01

GET /value?item= H2F &field=protein stability index returns 3.27
